target: UniProtKB P40238; assay: pro-proliferation effect on BAF3-TPOR cell (CCK-8); conditions: BAF3-TPOR cells, proliferation relative to rhTPO positive control
Sequence (P40238 26-635): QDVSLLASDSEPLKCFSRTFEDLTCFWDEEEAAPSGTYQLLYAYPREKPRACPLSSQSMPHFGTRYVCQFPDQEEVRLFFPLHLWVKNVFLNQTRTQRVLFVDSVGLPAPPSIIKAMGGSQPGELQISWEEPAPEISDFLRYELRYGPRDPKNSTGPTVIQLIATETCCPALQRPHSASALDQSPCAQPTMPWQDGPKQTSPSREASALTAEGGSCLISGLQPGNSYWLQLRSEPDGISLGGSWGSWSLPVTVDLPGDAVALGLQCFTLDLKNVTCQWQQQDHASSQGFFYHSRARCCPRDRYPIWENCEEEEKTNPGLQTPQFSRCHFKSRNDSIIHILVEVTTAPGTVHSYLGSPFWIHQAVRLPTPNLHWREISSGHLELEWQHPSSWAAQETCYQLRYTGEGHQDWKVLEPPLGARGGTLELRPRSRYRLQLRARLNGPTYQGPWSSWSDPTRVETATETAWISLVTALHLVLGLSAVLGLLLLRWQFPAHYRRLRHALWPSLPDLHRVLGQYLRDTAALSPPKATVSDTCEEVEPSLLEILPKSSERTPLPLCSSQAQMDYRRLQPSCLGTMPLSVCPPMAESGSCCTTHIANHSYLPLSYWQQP
Recorded EC50 for the following compounds

Answered examples (5):
> print(dat)
                                   compound  result
1  CC1=NN(c2ccc3c(c2)C(C)CC3)C(=O)/C1=N\Nc1cccc(-c2ccc(C(=O)O)o2)c1O (centres unmarked) [Example 44]   50 nM
2  COC(=O)c1ccc(-c2cccc(N/N=C3\C(=O)N(c4ccc5c(c4)CCCC5)N=C3C)c2O)o1 [Example 54]  133 nM
3  CC1=NN(c2ccc3c(c2)CC(C)(C)C3)C(=O)/C1=N\Nc1cccc(-c2ccc(C(=O)O)o2)c1O [Example 45]  130 nM
4  CC1=NN(c2ccc3c(c2)CC3)C(=O)/C1=N\Nc1cccc(-c2ccc(C(=O)O)o2)c1O [Example 22]   15 nM
5  CC1=NN(c2ccc3c(c2)CCO3)C(=O)/C1=N\Nc1cc(C)cc(-c2cccc(C(=O)O)c2)c1O [Example 13]  141 nM

Request: Record request: EC50 value, item CC1=NN(c2ccc3c(c2)CC3)C(=O)/C1=N\Nc1cccc(-c2cccc(C(=O)O)c2)c1O [Example 5]
Response: 354 nM

Request: CC1=NN(c2ccc3c(c2)CCCC3)C(=O)/C1=N\Nc1cccc(-c2cccc(C(=O)O)c2)c1O [Example 3]
Response: 310 nM

Request: COC(=O)c1ccc(-c2cccc(N/N=C3\C(=O)N(c4ccc5c(c4)CCC5)N=C3C)c2O)o1 [Example 55]
Response: 71 nM

Source of measurements: patent US8367710B2
